- System: PPARg:RXRa IVT, anti-PPARg (NR concentration 270 nM, RXRa partner concentration 90 nM)
- experimental_details: PBM binding z-score (relative to random genomic background probes); higher = stronger binding; sequences stand for … in GC…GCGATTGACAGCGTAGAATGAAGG
Note: every record was labeled by where its PBM binding z-score sits among lowest (below 1), middle (1 to below 4), highest (4 or more)

Worked cases, answers included:
[[record]]
sequence_data = "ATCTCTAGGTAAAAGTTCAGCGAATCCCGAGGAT"
subject_of_test = "PPARg:RXRa IVT, anti-PPARg (NR concentration 270 nM, RXRa partner concentration 90 nM)"
assigned_label = "highest"

[[record]]
sequence_data = "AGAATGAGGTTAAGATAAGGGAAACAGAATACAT"
subject_of_test = "PPARg:RXRa IVT, anti-PPARg (NR concentration 270 nM, RXRa partner concentration 90 nM)"
assigned_label = "middle"


Looking at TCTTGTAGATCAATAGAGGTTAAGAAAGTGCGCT , which class would you pick?
middle

Looking at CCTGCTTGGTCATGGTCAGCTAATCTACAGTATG , which class would you pick?
lowest

Looking at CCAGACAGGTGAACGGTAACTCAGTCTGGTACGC , which class would you pick?
middle

Looking at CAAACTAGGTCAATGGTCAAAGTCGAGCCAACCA , which class would you pick?
highest

Looking at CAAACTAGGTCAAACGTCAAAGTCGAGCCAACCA , which class would you pick?
highest

Looking at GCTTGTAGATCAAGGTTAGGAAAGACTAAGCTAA , which class would you pick?
lowest

Looking at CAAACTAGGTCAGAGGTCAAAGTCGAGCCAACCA , which class would you pick?
highest

Looking at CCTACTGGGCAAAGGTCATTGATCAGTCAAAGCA , which class would you pick?
highest

Looking at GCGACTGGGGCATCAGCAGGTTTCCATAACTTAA , which class would you pick?
middle

Looking at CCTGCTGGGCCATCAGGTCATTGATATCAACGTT , which class would you pick?
middle

The measured values listed here are drawn from the supplement of paper PMC6555819.
